Recorded PBM binding z-score, one value per entry.
test system: LXRa homodimer (NR concentration 270 nM); experiment: PBM binding z-score (relative to random genomic background probes); higher = stronger binding; sequences stand for … in GC…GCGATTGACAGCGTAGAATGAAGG
ENDPOINT: PBM binding z-score

>>> observed("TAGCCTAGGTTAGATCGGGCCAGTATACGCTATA")
-0.629
>>> observed("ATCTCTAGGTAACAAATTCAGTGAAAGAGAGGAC")
0.441
>>> observed("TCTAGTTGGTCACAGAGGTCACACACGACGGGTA")
3.92
>>> observed("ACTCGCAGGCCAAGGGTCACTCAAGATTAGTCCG")
0.261
>>> observed("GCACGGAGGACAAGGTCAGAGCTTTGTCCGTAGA")
-0.362
>>> observed("GCTAGTTGGTCAGTAAAAGTTCACACACCGGTCG")
4.58
>>> observed("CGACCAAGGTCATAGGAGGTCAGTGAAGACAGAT")
4.51
>>> observed("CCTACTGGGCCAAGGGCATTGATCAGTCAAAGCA")
-0.484
>>> observed("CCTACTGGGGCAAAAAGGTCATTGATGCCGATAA")
2.86
>>> observed("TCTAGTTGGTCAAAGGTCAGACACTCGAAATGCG")
2.66
>>> observed("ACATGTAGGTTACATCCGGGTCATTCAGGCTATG")
1.49
>>> observed("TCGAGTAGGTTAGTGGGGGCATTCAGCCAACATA")
0.619
>>> observed("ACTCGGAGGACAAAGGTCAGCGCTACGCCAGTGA")
1.62
>>> observed("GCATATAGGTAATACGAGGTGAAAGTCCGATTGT")
0.407
>>> observed("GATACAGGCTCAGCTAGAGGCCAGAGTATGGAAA")
-0.652
>>> observed("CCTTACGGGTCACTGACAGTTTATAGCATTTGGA")
0.494
>>> observed("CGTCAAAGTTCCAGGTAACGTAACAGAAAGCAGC")
-0.161
>>> observed("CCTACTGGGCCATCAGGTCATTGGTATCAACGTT")
1.08
>>> observed("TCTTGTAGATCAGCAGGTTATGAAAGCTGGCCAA")
-0.501
>>> observed("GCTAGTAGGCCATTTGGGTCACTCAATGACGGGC")
-0.666
>>> observed("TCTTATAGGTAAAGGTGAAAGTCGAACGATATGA")
0.00548
>>> observed("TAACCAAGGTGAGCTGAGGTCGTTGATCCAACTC")
-0.195
>>> observed("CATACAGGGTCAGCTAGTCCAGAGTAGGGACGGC")
-0.017
>>> observed("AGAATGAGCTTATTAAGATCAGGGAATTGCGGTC")
-0.374
>>> observed("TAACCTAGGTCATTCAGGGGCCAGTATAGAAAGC")
3.1
>>> observed("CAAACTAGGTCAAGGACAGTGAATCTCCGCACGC")
0.383
>>> observed("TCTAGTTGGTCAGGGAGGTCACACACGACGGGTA")
2.44
>>> observed("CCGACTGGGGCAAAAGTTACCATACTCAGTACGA")
-0.126
>>> observed("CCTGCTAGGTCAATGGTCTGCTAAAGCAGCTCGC")
-0.00615
>>> observed("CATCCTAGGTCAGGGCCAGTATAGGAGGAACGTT")
0.118
>>> observed("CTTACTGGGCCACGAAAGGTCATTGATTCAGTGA")
4.47
>>> observed("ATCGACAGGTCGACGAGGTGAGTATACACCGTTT")
-0.541
>>> observed("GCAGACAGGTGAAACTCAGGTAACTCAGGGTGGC")
-0.137
>>> observed("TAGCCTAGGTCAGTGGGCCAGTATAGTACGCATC")
-0.786
>>> observed("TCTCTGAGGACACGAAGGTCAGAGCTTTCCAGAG")
0.117
>>> observed("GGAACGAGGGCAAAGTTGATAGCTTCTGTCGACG")
-0.752
>>> observed("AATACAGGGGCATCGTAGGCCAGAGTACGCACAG")
0.0851
>>> observed("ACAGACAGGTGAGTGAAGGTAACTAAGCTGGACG")
-0.437
>>> observed("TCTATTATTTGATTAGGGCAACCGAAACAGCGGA")
1.29
>>> observed("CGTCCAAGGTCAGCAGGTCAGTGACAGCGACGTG")
0.47
>>> observed("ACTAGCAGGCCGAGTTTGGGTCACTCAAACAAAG")
-0.389
>>> observed("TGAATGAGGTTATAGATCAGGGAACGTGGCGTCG")
-0.163
>>> observed("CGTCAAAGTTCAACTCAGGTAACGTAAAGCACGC")
4.59
>>> observed("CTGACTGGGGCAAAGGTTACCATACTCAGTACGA")
-0.166
>>> observed("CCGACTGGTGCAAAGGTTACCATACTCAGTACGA")
0.244
>>> observed("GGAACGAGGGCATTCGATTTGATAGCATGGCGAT")
-0.512
>>> observed("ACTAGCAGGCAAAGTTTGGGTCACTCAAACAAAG")
-0.475
>>> observed("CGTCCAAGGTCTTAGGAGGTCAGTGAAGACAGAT")
0.984
>>> observed("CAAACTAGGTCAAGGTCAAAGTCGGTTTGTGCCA")
4.23
>>> observed("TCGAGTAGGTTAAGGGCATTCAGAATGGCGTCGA")
-0.302
>>> observed("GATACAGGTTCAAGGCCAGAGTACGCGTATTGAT")
0.305

* * *

tested on: THRa:RXRa (NR concentration 90 nM, RXRa partner concentration 90 nM); experiment: PBM binding z-score (relative to random genomic background probes); higher = stronger binding; sequences stand for … in GC…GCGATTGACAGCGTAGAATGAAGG
Class yes (1): PBM binding z-score at least 1. Class no (0): PBM binding z-score below 1.

>>> class_assignment("CCAGACAGGTGAGAAGTTAACTCAGCCTCGATTA")
"no (0)"
>>> class_assignment("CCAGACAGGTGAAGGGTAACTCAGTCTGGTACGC")
"no (0)"
>>> class_assignment("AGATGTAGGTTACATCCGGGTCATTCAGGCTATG")
"yes (1)"
>>> class_assignment("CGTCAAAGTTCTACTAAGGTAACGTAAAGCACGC")
"yes (1)"
>>> class_assignment("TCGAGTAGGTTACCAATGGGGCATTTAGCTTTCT")
"no (0)"
>>> class_assignment("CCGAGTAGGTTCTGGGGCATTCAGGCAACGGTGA")
"no (0)"
>>> class_assignment("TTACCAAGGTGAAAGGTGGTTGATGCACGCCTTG")
"yes (1)"
>>> class_assignment("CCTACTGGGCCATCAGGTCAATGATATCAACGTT")
"yes (1)"
>>> class_assignment("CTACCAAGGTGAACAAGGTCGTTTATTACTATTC")
"yes (1)"
>>> class_assignment("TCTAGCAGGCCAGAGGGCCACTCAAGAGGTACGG")
"no (0)"
>>> class_assignment("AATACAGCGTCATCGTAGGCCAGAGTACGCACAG")
"no (0)"
>>> class_assignment("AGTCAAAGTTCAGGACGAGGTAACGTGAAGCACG")
"yes (1)"
>>> class_assignment("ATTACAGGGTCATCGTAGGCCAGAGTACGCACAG")
"yes (1)"
>>> class_assignment("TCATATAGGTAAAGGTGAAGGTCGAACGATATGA")
"yes (1)"
>>> class_assignment("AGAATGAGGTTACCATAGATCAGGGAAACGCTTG")
"yes (1)"
>>> class_assignment("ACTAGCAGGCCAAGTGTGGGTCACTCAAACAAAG")
"yes (1)"
>>> class_assignment("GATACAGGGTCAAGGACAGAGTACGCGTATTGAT")
"yes (1)"
>>> class_assignment("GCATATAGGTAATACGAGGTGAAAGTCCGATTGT")
"yes (1)"
>>> class_assignment("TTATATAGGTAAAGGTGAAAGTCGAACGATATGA")
"yes (1)"
>>> class_assignment("CCTGTTAGGTCAATGGTCAGCTAAAGCAGCTCGC")
"yes (1)"
>>> class_assignment("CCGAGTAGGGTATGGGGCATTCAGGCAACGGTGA")
"no (0)"
>>> class_assignment("CCTACTGGGGCATCAGGTCATTGATATCAACGTT")
"yes (1)"
>>> class_assignment("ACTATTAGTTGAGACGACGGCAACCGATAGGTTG")
"no (0)"
>>> class_assignment("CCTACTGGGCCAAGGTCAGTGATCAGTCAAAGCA")
"yes (1)"
>>> class_assignment("TCTCGGAGGACCCGAAAGGTCAGAGCTCGACATC")
"yes (1)"
